PROTOCOL_SUMMARY: Cytotoxicity in HepG2.117 cells, ATPlite Luminescence Assay
Type: cell-based, human
PARTICULARS: human, incubated for 3 days, mean value, read-out: TOX-HepG2.117 CC50 (μM, mean value)
MEASURED_PROPERTY: CC50 at 3 days

// worked examples, CC50 at 3 days included
C[C@@H]1Cc2nn3c(c2CN1C(=O)c1ccc(Cl)c(Cl)c1)C(=O)N(Cc1ccncc1)CC3 = > 50 µM
Cc1cc(CN2CCn3nc4c(c3C2=O)CN(C(=O)c2ccc(Cl)c(Cl)c2)[C@H](C)C4)no1 = > 50 µM
C[C@@H]1Cc2nn3c(c2CN1C(=O)c1ccc(Cl)c(Cl)c1)C(=O)N(Cc1nnn(C)n1)CC3 = > 50 µM

The following compounds each have a reported value; give each one's CC50 at 3 days.
1. O=C(c1ccc(Cl)c(Cl)c1)N1CCc2nn3c(c2C1)C(=O)N(Cc1ccccn1)CCC3
2. CC(C)Cc1nnc(C(C)N2CCn3nc4c(c3C2=O)CN(C(=O)c2ccc(Cl)c(Cl)c2)[C@H](C)C4)o1 (some centres unmarked)
3. Cc1ccc(F)c2[nH]c(C(=O)N3Cc4c(nn5c4C(=O)N(Cc4ccccn4)CC5)C[C@H]3C)cc12
4. C[C@@H]1Cc2nn3c(c2CN1C(=O)c1ccc(Cl)c(Cl)c1)C(=O)N([C@@H](C)c1c[nH]nn1)CC3 (single isomer, unassigned)
5. C[C@@H]1Cc2nn3c(c2CN1C(=O)c1ccc(Cl)c(Cl)c1)C(=O)N(Cc1ccc(C#N)c(F)c1)CC3

> 50 µM
> 50 µM
30.9 µM
> 50 µM
39.9 µM

I'm hoping you can list CC50 at 3 days for every compound here, please.
1. C[C@@H]1Cc2nn3c(c2CN1C(=O)c1cc2c(C(F)F)c(F)ccc2[nH]1)C(=O)N(Cc1ccccn1)CC3
2. Cc1cncc(CN2CCn3nc4c(c3C2=O)CN(C(=O)c2ccc(Cl)c(Cl)c2)[C@H](C)C4)c1
3. C[C@@H]1Cc2nn3c(c2CN1C(=O)c1ccc(Cl)c(Cl)c1)C(=O)N(Cc1nnn(C)c1C(F)(F)F)CC3
4. C[C@@H]1Cc2nn3c(c2CN1C(=O)c1cc2c(C#N)c(F)ccc2[nH]1)C(=O)N(Cc1ccccn1)CC3
5. C[C@@H]1Cc2nn3c(c2CN1C(=O)c1ccc(Cl)c(Cl)c1)C(=O)N(Cc1ccncc1C(F)F)CC3

26.7 µM
> 50 µM
> 50 µM
15.5 µM
> 50 µM

Param item = C=C1CN(CC(F)(F)F)C(=O)c2c3c(nn2C1)CCN(C(=O)c1ccc(Cl)c(Cl)c1)C3 ; retrieve measured CC50 at 3 days. > 50 µM

* * *

PROTOCOL_SUMMARY: Cytotoxicity in HepG2.117 cells, ATPlite Luminescence Assay
Type: cell-based, human
PARTICULARS: human, incubated for 3 days, mean value, read-out: TOX-HepG2.117 CC50 (μM, mean value)
MEASURED_PROPERTY: CC50 at 3 days

Take a look at these entries with their results.
C[C@@H]1Cc2nn3c(c2CN1C(=O)c1cc2c(F)c(F)c(F)cc2[nH]1)C(=O)N(Cc1ccccn1)CC3 = 9.79 µM
O=C(c1ccc(Cl)c(F)c1)N1CCc2nn3c(c2C1)C(=O)N(Cc1ccccn1)CC3 = > 50 µM
COc1ccc(CN2CCCn3nc4c(c3C2=O)CN(C(=O)c2ccc(Cl)c(Cl)c2)[C@H](C)C4)cc1 = 20.9 µM
CC(c1cccc2cccnc12)N1CCn2nc3c(c2C1=O)CN(C(=O)c1ccc(Cl)c(Cl)c1)[C@H](C)C3 (stereo partly shown) = 33 µM
CCc1noc(C(C)N2CCn3nc4c(c3C2=O)CN(C(=O)c2ccc(Cl)c(Cl)c2)[C@H](C)C4)n1 (stereo partly shown) = > 50 µM

Please report CC50 at 3 days for every entry that follows.
1. C[C@@H]1Cc2nn3c(c2CN1C(=O)c1ccc(Cl)c(Cl)c1)C(=O)N(Cc1ccnc(C#N)c1)CC3
2. CC(c1nc(C(C)(C)C)no1)N1CCn2nc3c(c2C1=O)CN(C(=O)c1ccc(Cl)c(Cl)c1)[C@H](C)C3 (stereo partly shown)

["> 50 µM", "39.5 µM"]

* * *

PROTOCOL_SUMMARY: Cytotoxicity in HepG2.117 cells, ATPlite Luminescence Assay
Format: cell-based, human
PARTICULARS: human, incubated for 3 days, mean value, read-out: TOX-HepG2.117 CC50 (μM, mean value)
MEASURED_PROPERTY: CC50 at 3 days (µM)
One number for each entry, in µM.

The cases that follow already have their CC50 at 3 days on record.
C[C@@H]1Cc2nn3c(c2CN1C(=O)c1ccc(Cl)c(Cl)c1)C(=O)N([C@H](C)c1ccccc1C(F)(F)F)CC3 (relative stereo) = 19.2
COc1ccc(CN2CCn3nc4c(c3C2=O)CN(C(=O)c2ccc(C(F)F)c(Cl)c2)CC4)cc1 = 9.31
CC(c1ccccc1F)N1CCn2nc3c(c2C1=O)CN(C(=O)c1ccc(Cl)c(Cl)c1)[C@H](C)C3 (stereo partly drawn) = 24.5
COc1ccc(CN2CCn3nc4c(c3C2=O)CN(C(=O)c2ccc(Cl)c(Cl)c2)[C@H](C)C4)c(F)c1 = 6.11
C[C@@H]1Cc2nn3c(c2CN1C(=O)c1cc2c(Cl)cccc2[nH]1)C(=O)N(Cc1ccccn1)CC3 = 10.7

May I ask what CC50 at 3 days has been recorded for Cc1cc(F)cc2[nH]c(C(=O)N3Cc4c(nn5c4C(=O)N(Cc4ccccn4)CC5)C[C@H]3C)cc12 ? 18.9

* * *

PROTOCOL_SUMMARY: Cytotoxicity in HepG2.117 cells, ATPlite Luminescence Assay
Type: cell-based, human
PARTICULARS: human, incubated for 3 days, mean value, read-out: TOX-HepG2.117 CC50 (μM, mean value)
MEASURED_PROPERTY: CC50 at 3 days

Here are 10 compounds together with their reported answers.
Cc1ccc(CN2CCn3nc4c(c3C2=O)CN(C(=O)c2ccc(Cl)c(Cl)c2)[C@H](C)C4)c(C)n1 = 24.4 µM
C[C@@H]1Cc2nn3c(c2CN1C(=O)c1ccc(Cl)c(Cl)c1)C(=O)N([C@H](C)c1ccc(C(F)(F)F)cc1)CC3 (relative stereo) = 14.6 µM
Cc1nc(CN2CCn3nc4c(c3C2=O)CN(C(=O)c2ccc(Cl)c(Cl)c2)[C@H](C)C4)co1 = > 50 µM
Cc1cc(CN2CCn3nc4c(c3C2=O)CN(C(=O)c2ccc(Cl)c(Cl)c2)[C@H](C)C4)on1 = > 50 µM
Cc1cn(C)c(CN2CCn3nc4c(c3C2=O)CN(C(=O)c2ccc(Cl)c(Cl)c2)[C@H](C)C4)n1 = > 50 µM
C[C@@H]1Cc2nn3c(c2CN1C(=O)c1ccc(Cl)c(Cl)c1)C(=O)N(Cc1cn(C)nc1C(F)F)CC3 = > 50 µM
O=C(c1ccc(Cl)c(Cl)c1)N1CCc2nn3c(c2C1)C(=S)NCCC3 = > 50 µM
C[C@@H]1Cc2nn3c(c2CN1C(=O)c1ccc(Cl)c(Cl)c1)C(=O)N([C@H](C)c1ccc(F)cc1)CC3 = > 25 µM
O=C1NCCCn2nc3c(c21)CN(C(=O)c1ccc(Cl)c(Cl)c1)CC3 = > 50 µM
C[C@@H]1Cc2nn3c(c2CN1C(=O)c1ccc(Cl)c(Cl)c1)C(=O)N(Cc1cncc(Cl)c1)CC3 = > 50 µM

Please give CC50 at 3 days, item by item, for the list that follows.
1. Cc1nc(C)c(CN2CCn3nc4c(c3C2=O)CN(C(=O)c2ccc(Cl)c(Cl)c2)[C@H](C)C4)s1
2. C[C@@H]1Cc2nn3c(c2CN1C(=O)c1ccc(Cl)c(Cl)c1)C(=O)N(Cc1cccc(C#N)c1F)CC3
3. Cc1ncsc1CN1CCn2nc3c(c2C1=O)CN(C(=O)c1ccc(Cl)c(Cl)c1)[C@H](C)C3
4. COc1ccc(CN2CCn3nc4c(c3C2=O)CN(C(=O)c2ccc(C)c(F)c2)CC4)cc1

["> 50 µM", "> 50 µM", "> 50 µM", "20.4 µM"]

Consider the compound COc1ccc([C@H](C)N2CCn3nc4c(c3C2=O)CN(C(=O)c2ccc(Cl)c(Cl)c2)[C@H](C)C4)cc1 and give its measured CC50 at 3 days. 10.4 µM

* * *

Task for the reader: assign each of the following compounds its reported CC50 at 3 days.
PROTOCOL_SUMMARY: Cytotoxicity in HepG2.117 cells, ATPlite Luminescence Assay
Format: cell-based, human
PARTICULARS: human, incubated for 3 days, mean value, read-out: TOX-HepG2.117 CC50 (μM, mean value)
Numbers only, in µM.

Guide cases for CC50 at 3 days, answers given:
C[C@@H]1Cc2nn3c(c2CN1C(=O)c1ccc(Cl)c(Cl)c1)C(=O)N([C@@H](C)c1ccc(F)cc1)CC3 = 26.2
COc1cccc(F)c1CN1CCn2nc3c(c2C1=O)CN(C(=O)c1ccc(Cl)c(Cl)c1)[C@H](C)C3 = 29.1

Next item in the queue.
What value of measured CC50 at 3 days is listed for Cc1cc(CN2CCn3nc4c(c3C2=O)CN(C(=O)c2ccc(Cl)c(Cl)c2)[C@H](C)C4)ccc1C#N ? 19.2
